// provenance: paper PMC6219668

Tested on: panel of nearly 500 cancer cell lines
Assay: Cancer Cell Line Encyclopedia profiling, 3-day CellTiter-Glo
Assay type: cell-based
Details: suit2 (pancreas); read-out: IC50
recordedMetric: IC50

IN: Supply measured IC50 of CC(=O)c1c(C)c2cnc(Nc3ccc(N4CCNCC4)cn3)nc2n(C2CCCC2)c1=O [Palbociblib] in your reply.
OUT: > 8 µM

---

Test system: panel of nearly 500 cancer cell lines
Assay: Cancer Cell Line Encyclopedia profiling, 3-day CellTiter-Glo
Type: cell-based
Conditions: ncih1568 (lung); read-out: IC50
recordedMetric: IC50

IN: Supply measured IC50 of CC(=O)c1c(C)c2cnc(Nc3ccc(N4CCNCC4)cn3)nc2n(C2CCCC2)c1=O [Palbociblib] in your reply.
OUT: > 8 µM
